biological target: Diaphorase; assay: peptide array, 10 uM labeled diaphorase, no FAD
# fluorescence annotations
# output: bare number, no unit

[ask] Indicate the recorded fluorescence value for this binder: VKDGANKHYWRVSGSG
[reply] 20400

[ask] Indicate the recorded fluorescence value for this binder: EGYANKLLALFSGSG
[reply] 6650

[ask] Indicate the recorded fluorescence value for this binder: RWKYQKFNGGSG
[reply] 61300

Source of measurements: patent US20190064177A1
